Data origin: paper PMC11995724

Experiment: in vitro
Details: human, hek293t cells
MEASURE: viability at 48 h, 25 µM
# include the unit after the value

Examples with their reported viability at 48 h, 25 µM follow.
Report measured viability at 48 h, 25 µM; entry is CC(Cl)C(=O)N(Cc1nnc(-c2ccccc2Cl)o1)C1CC1 (stereo not shown) [5-B17] 134%

Report measured viability at 48 h, 25 µM; entry is COc1cccc2c1CCC2(CO)NC(=O)CCl (stereo not shown) [5-C20] 58.2%

Report measured viability at 48 h, 25 µM; entry is C=CC(=O)N(Cc1cccs1)C1CCc2cnn(C(C)C)c2C1 (stereo not shown) [1-L15] 82.3%

Report measured viability at 48 h, 25 µM; entry is COc1ccc(CN2CCN(C(=O)CCl)CC2)cc1 [5-A15] -0.117%

Report measured viability at 48 h, 25 µM; entry is CCc1cccc(CC)c1NC(=O)CCl [4-F10, 2-chloro-N-(2,6-diethylphenyl)acetamide] 99.1%

***
Report measured viability at 48 h, 25 µM; entry is COc1ccc(NC(=O)C(C#N)=Cc2cnc3c(C)cccn23)cc1 [9-L03] 111%

Report measured viability at 48 h, 25 µM; entry is COc1cc(C=C(C#N)C(=O)NC2CC2)ccc1O [9-G12] 110%

###

Experiment: in vitro
Settings: human, hek293t cells
MEASURE: viability at 48 h, 25 µM (%)
Note: unit % is implicit; provide only the numeric part.

Examples with their reported viability at 48 h, 25 µM follow.
Report measured viability at 48 h, 25 µM; entry is `C=CC(=O)NCc1nnc2n1CCCCC2` 43.2

Report measured viability at 48 h, 25 µM; entry is CC(Cl)C(=O)NCc1nnc(-c2ccncc2F)s1 (stereo not drawn) 78.4

Report measured viability at 48 h, 25 µM; entry is CC(Cl)C(=O)NCc1cnc(N2CCOCC2)s1 (stereo not drawn) 116

Report measured viability at 48 h, 25 µM; entry is C=CC(=O)N1CC2(CCOCC2)C1c1ccco1 (stereo not drawn) 72.1

Report measured viability at 48 h, 25 µM; entry is `COc1ccc(-c2csc(NC(=O)CCl)n2)c(OC)c1` 0.886

Consider the additional compound presented here.
Report measured viability at 48 h, 25 µM; entry is CCC(C)C1CN(Cc2ccc(C)nc2)CCN1C(=O)C(C)Cl (stereo not drawn) 74.9

###

Measured viability at 48 h, 25 µM, listed per entry.
Test: in vitro
Conditions: human, hek293t cells
Note: unit % is implicit; provide only the numeric part.

Report measured viability at 48 h, 25 µM; entry is `Cc1ccccc1NC(=O)C(C#N)=Cc1cccc2ccccc12` 88.4

Report measured viability at 48 h, 25 µM; entry is Cc1nn(C)c(C)c1CN(C(=O)CCl)C1CCCCC1C (stereo not drawn) 0.467

###

Experiment: in vitro
Details: human, hek293t cells
MEASURE: viability at 48 h, 25 µM (%)
Note: unit % is implicit; provide only the numeric part.

Report measured viability at 48 h, 25 µM; entry is CCOc1ccc(C(=O)CCl)cc1 [10-F12, 2-chloro-1-(4-ethoxyphenyl)ethan-1-one] 1.95

***
Report measured viability at 48 h, 25 µM; entry is C=CC(=O)NCCn1cnc2ccsc2c1=O [2-N15] 66

Report measured viability at 48 h, 25 µM; entry is C=CC(=O)NCC1(c2ccccc2Cl)CCCCC1 [1-A17] 64.2

Report measured viability at 48 h, 25 µM; entry is CC(Cl)C(=O)N1CCOCC1 (stereo not drawn) [5-H09, 2-chloro-1-(morpholin-4-yl)propan-1-one] 103

Report measured viability at 48 h, 25 µM; entry is C=CC(=O)N(C)C[C@@H]1CCC(=O)N1 [3-A22] 150

Report measured viability at 48 h, 25 µM; entry is CC(Cl)C(=O)Nc1ccc(Cl)cc1F (stereo not drawn) [4-C14] 58.6

Report measured viability at 48 h, 25 µM; entry is Cn1c(-c2ccccc2)c(C(=O)CCl)c2ccccc21 [10-N04] 1.67

Report measured viability at 48 h, 25 µM; entry is C=CC(=O)N1CCCn2ncc(C3CC3)c21 [3-M15] 1.25

Report measured viability at 48 h, 25 µM; entry is C=CC(=O)NCc1ccc(-n2ccc(C)n2)nc1 [3-H16] 99.7

Report measured viability at 48 h, 25 µM; entry is C=CC(=O)NCc1cnc2ccsc2c1 [2-D11] 74.3

Report measured viability at 48 h, 25 µM; entry is CC(Cl)C(=O)Nc1ccc2c(c1)CCC2 (stereo not drawn) [5-C19] 68.8

Report measured viability at 48 h, 25 µM; entry is CSc1cccc(NC(=O)CCl)c1 [4-H10] 1.13

###

Experiment: in vitro
Details: human, hek293t cells
# class assignment by measured viability at 48 h, 25 µM: class A: < 1%; class B: ≥ 1% and < 80%; class C: ≥ 80%

Using the reported viability at 48 h, 25 µM, which band applies to O=C(CCl)N(CC1CCCO1)C1CCS(=O)(=O)C1 (centres unmarked) [5-N16] ? class B

Using the reported viability at 48 h, 25 µM, which band applies to N#CC(=Cc1sc2ccccc2c1Cl)C(=O)Nc1nccs1 [9-F15] ? class C

Using the reported viability at 48 h, 25 µM, which band applies to CC(C)NC(=O)C(C#N)=Cc1ccc(Cl)cc1Cl [9-K07] ? class B

Using the reported viability at 48 h, 25 µM, which band applies to CCOc1ccc(C(=O)C(C)Cl)cc1 (centres unmarked) [10-G06, 2-chloro-1-(4-ethoxyphenyl)propan-1-one] ? class C

***
Using the reported viability at 48 h, 25 µM, which band applies to O=C(CCl)Nc1ccc(Cl)cc1[N+](=O)[O-] [5-N08] ? class B

Using the reported viability at 48 h, 25 µM, which band applies to O=C(CCl)NC(c1ccccc1)C1CC1c1ccncc1 (centres unmarked) [7-F03] ? class A

Using the reported viability at 48 h, 25 µM, which band applies to N#CC(=Cc1ccc(N2CCOCC2)cc1)C(=O)Nc1ccccc1F [9-B03] ? class C

Using the reported viability at 48 h, 25 µM, which band applies to O=C(CCl)NCCc1c[nH]c2c(F)c(F)c(F)cc12 [7-H16] ? class B

Using the reported viability at 48 h, 25 µM, which band applies to O=C(CCl)N(CC1=CCCOC1)Cc1ccccc1 [7-J20] ? class A

Using the reported viability at 48 h, 25 µM, which band applies to O=C1CCc2cc(C(=O)CCl)ccc2N1 [10-M03] ? class B

###

Assay: in vitro
Settings: human, hek293t cells
MEASURE: viability at 48 h, 25 µM (%)
Note: unit % is implicit; provide only the numeric part.

Report measured viability at 48 h, 25 µM; entry is CC(Cl)C(=O)NCc1cc(C(F)(F)F)cs1 (centres unmarked) 97.1

Report measured viability at 48 h, 25 µM; entry is C=CC(=O)NCc1ccc(N2CCCC(C(N)=O)C2)cc1 (centres unmarked) 126

Report measured viability at 48 h, 25 µM; entry is CC(=O)NC1(c2nc(C)cs2)CCN(C(=O)C(C)Cl)C1 (centres unmarked) 114

Report measured viability at 48 h, 25 µM; entry is `C=CC(=O)N1CCN(Cc2cc(=O)n3ccsc3n2)CC1` 90.5

Report measured viability at 48 h, 25 µM; entry is `C=CC(=O)NCCc1ccnn1C` 178

***
Report measured viability at 48 h, 25 µM; entry is `CCCCNC(=O)C(C#N)=Cc1ccsc1` 102

Report measured viability at 48 h, 25 µM; entry is `COC(=O)c1c(NC(=O)CCl)sc(Cl)c1-c1ccccc1` 0.576

Report measured viability at 48 h, 25 µM; entry is `COc1cc(C=C(C#N)C(=O)NC2CCCCC2)cc(Cl)c1O` 92.7

Report measured viability at 48 h, 25 µM; entry is `Cc1cc(C(=O)CCl)c(C)n1-c1ccccc1` 1.11

Report measured viability at 48 h, 25 µM; entry is `CCCCNC(=O)C(C#N)=Cc1c(Cl)cccc1Cl` 25.1

Report measured viability at 48 h, 25 µM; entry is CC(Cl)C(=O)NC1CC=CCC1 (centres unmarked) 114

###

Experiment: in vitro
Conditions: human, hek293t cells
# class assignment by measured viability at 48 h, 25 µM: LOW = under 50%, MEDIUM = from 50% up to 80%, HIGH = 80% and over

A selection of reference data follows.
Using the reported viability at 48 h, 25 µM, which band applies to `CN(C)c1ccc(C=C(C#N)C(=O)N2CCC2)cc1` ? HIGH

Using the reported viability at 48 h, 25 µM, which band applies to `C=CC(=O)NCc1coc(-c2ccc(C)cc2)n1` ? LOW

Using the reported viability at 48 h, 25 µM, which band applies to `N#CC(=Cc1c(F)cccc1F)C(=O)NCCc1ccccc1` ? LOW

***
Using the reported viability at 48 h, 25 µM, which band applies to CC(c1cccs1)N(C)C(=O)CCl (centres unmarked) ? LOW

Using the reported viability at 48 h, 25 µM, which band applies to C=CC(=O)Nc1ccc(C(=O)NC2CCN(C(C)C)C2=O)cc1 (centres unmarked) ? MEDIUM

Using the reported viability at 48 h, 25 µM, which band applies to `O=C(CCl)Nc1nc2c(s1)CCc1ccccc1-2` ? LOW

Using the reported viability at 48 h, 25 µM, which band applies to `Cc1cc(C(=O)CCl)c(C)n1CC(N)=O` ? HIGH

Using the reported viability at 48 h, 25 µM, which band applies to C=CC(=O)NCC1OCCc2sc(F)cc21 (centres unmarked) ? MEDIUM

Using the reported viability at 48 h, 25 µM, which band applies to `CCCNC(=O)C(C#N)=Cc1cnc2c(C)cccn12` ? HIGH

Using the reported viability at 48 h, 25 µM, which band applies to CCC(=O)NC1CCN(C(=O)CCl)C1 (centres unmarked) ? LOW
